Test: reduction of polyQ htt aggregates in cells – imaging, exon1htt(103Q)mCFP cells, high-content imaging, primary screen (AID 483);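 further: compound exposure lasted 3 days before fixation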
Details: exon1htt(103Q)mCFP cell line, aggregate imaging, at 2 µM; active compounds read high
Calls of active or inactive are those of the source.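 How the source made its calls: active means visual image review flags a hit and inhibition of aggregation exceeds 20%; inconclusive means visual hit but inhibition at or below 20%; inactive means no hit on visual image review.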
Assign inhibition of aggregation to each entry below.

Report inhibition of aggregation for `N#Cc1nc(COc2ccccc2Cl)oc1N1CCCCCC1` please.
-17.4% (inactive)

Report inhibition of aggregation for `C1CCN=C(Nc2nc3c(s2)CCCC3)CC1` please.
-10.9% (inactive)

Report inhibition of aggregation for `CCOCCn1c(CN2CCN(c3cccc(Cl)c3)CC2)nc2c1c(=O)n(C)c(=O)n2C` please.
-5.1% (inactive)

Report inhibition of aggregation for `Cc1cc(C(=O)Nc2c(C)n(C)n(-c3ccccc3)c2=O)c(C)o1` please.
5.3% (inactive)

Report inhibition of aggregation for `Cc1cccc(C)c1NC(=O)COC(=O)c1nonc1N` please.
3.6% (inactive)

Report inhibition of aggregation for `CCCOC(=O)/C(C(N)=NCc1ccccc1)=C(\O)OCCC` please.
-27.7% (inactive)

Report inhibition of aggregation for C1=CC2CC1CC2CN1CCN(c2ccccc2)CC1 (centres undefined) please.
-19.6% (inactive)

Report inhibition of aggregation for `COc1ccccc1OCc1ccc(C(=O)Nc2ccncc2)o1` please.
-9.4% (inactive)

Report inhibition of aggregation for `CCOC(=O)c1sc2nc(SCC#N)n(CCCN3CCCC3=O)c(=O)c2c1C` please.
-11.9% (inactive)

Report inhibition of aggregation for Cc1[nH]c(=O)[nH]c(=O)c1S(=O)(=O)N1CCCC(C(=O)NCc2ccco2)C1 (centres undefined) please.
-4.9% (inactive)

Report inhibition of aggregation for O=C(C1CCCO1)N1CCc2ccccc21 (centres undefined) please.
-16.9% (inactive)

Report inhibition of aggregation for COc1cccc(C2CC(c3ccc(C)cc3)Nc3nc(N)nn32)c1 (centres undefined) please.
23.1% (inactive)

Report inhibition of aggregation for `O=C(CSc1nnc2sc3ccccc3n12)c1ccco1` please.
23.4% (inactive)

Report inhibition of aggregation for Cc1[nH]c(=O)[nH]c(=O)c1S(=O)(=O)N1c2ccc(F)cc2CCC1C (centres undefined) please.
-5% (inactive)

Report inhibition of aggregation for `O=C(Cn1ncc2c1-c1ccccc1OC2)Nc1ccc(Cl)cn1` please.
-7.1% (inactive)

Report inhibition of aggregation for Cc1ccc(NC(=O)COS(=O)c2ccc(C)cc2)cc1 (centres undefined) please.
2.9% (inactive)

Report inhibition of aggregation for `COC(=O)CCN(C(=O)c1ccc2c(c1)OCO2)c1ccccn1` please.
-10.6% (inactive)

Report inhibition of aggregation for `Cc1nc(NC2=NCN(CCN3CCOCC3)CN2)nc2c(C)cccc12` please.
-1.2% (inactive)

Report inhibition of aggregation for `CC(C)(C)c1nc(CN2CCOCC2)ccc1O` please.
21.1% (inactive)

Report inhibition of aggregation for `CCOC(=O)c1c(C)oc2ccc(NS(=O)(=O)c3ccc4c5c(cccc35)C(=O)N4)cc12` please.
-5.8% (inactive)

Report inhibition of aggregation for OCCNCC(O)Cn1ccc2ccccc21 (centres undefined) please.
-0.3% (inactive)

Report inhibition of aggregation for `CCCC(=O)Nc1ccc(NC(=O)C2CC2)cn1` please.
-28.9% (inactive)

Report inhibition of aggregation for COc1ccc(OC)c(C2CC(=O)NC(SC)=C2C#N)c1 (centres undefined) please.
-13.5% (inactive)

Report inhibition of aggregation for `Cc1ccc(S(=O)(=O)NCCC(=O)OCn2nnc3ccccc3c2=O)cc1` please.
5% (inactive)
